Test: Specific activity of purified CHI, absorbance decrease at 384 nm, homoeriodictyol chalcone; note: unit not given here
Type: biochemical
Conditions: purified CHI in 50 mM PBS, 100 μM substrate, 25° C.
Method: E. coli BL21 (DE3) cells containing one of the pET28b plasmids from Table 2 or Table 3 were used to inoculate 1 L LB medium at OD of 0.1. […] The activity of the respective purified enzyme was determined by measuring the absorbance decrease at 384 nm in the reaction mix (CHI in 50 mM PBS with 100 μM of either naringenin chalcone, hesperetin chalcone, eriodictyol chalcone, homoeriodictyol chalcone or 4-O-methyl butein at 25° C.).
Everything with Specific activity, Homoeriodctiol chalcone lower than 8 is 0 (no); everything else, including exactly 8, is 1 (yes).

[
  {
    "molecule": "CHI15: Chalcone isomerase from Clostridioides difficile, access no. WP_095917646.1 (protein, Clostridioides difficile) ADFEFKIMRSLIYVGLAKEEYRPKLMDWLYRHHIPDSISTFGPYCTKYAFYQAYPTPNEGERFGARKMQLTEHYWLVDEHMPEMANRIMTEYMPMDVLRWQGCIPDVENKRVHENVESGDAGRAVGGDNGCPPFIFAFVPINWEEDFRGKGRTVQDGPNYRWQFMIKYPDGISKEEGEKWFYDEVVPYFTNCCYVNRFVSSKIMINYGATAFDRVSELWFEGEEEWYKAVVEETKSFIKKPEWAQEEEFPYLKPQFNIASVFLGDIATMDAYSQYRGYIPMR",
    "class": "0 (no)"
  },
  {
    "molecule": "CHIera Mut6: Chalcone isomerase variant 6 from Eubacterium ramulus, genetically engineered (protein, listed as Eubacterium ramulus) MADFKFEPMRSLIYVDCVSEDYRPKLQRWIYKVHIPDSISNFEPYVTKYAFYPSFPIPPQGDRFGYARMQLTEHHWLVSELDPRLEIRAIAETFPMDVLVWQGQIPAAAHTDAQIDSDGDAGDAARKSNNAEGNPFIFAFLPMWWEKDLKGKGRTIEDGANYRFNMTIGFPEGVDKAEGEKWLFEKVVPILQAAPECTRVLASAVKKDINGCVMDWVLEIWFENQSGWYKVMVDDMKALEKPSWAQQDAFPFLKPYHNVCSAAVADYTPSNNLANYRGYITMR",
    "class": "1 (yes)"
  },
  {
    "molecule": "CHI1: Chalcone isomerase from Fusibacter sp. 3D3, access no. WP_069876268.1 (protein, Fusibacter sp. 3D3) SYVPEFKPMRSFILNNVRSDNDRPKAFRWLYKQHVPESISQFRPYCTKYATYHALPLVEGAEQFGTYNWIMTEHYWNFNIFQDKGLGHSRGLAFTEAYPHDFMEITCQPPSNTLRQSGWQGSAEGYHPIVFCFAPIFWENDFKGSERLTDDGANFRWLFFLSYPEGVTVEEGDQWFLETFAKEAAEMPEVIRFLSSRVMDSPRINPFDRIVELWFDDSEAWHNAMVKNGHLFTKPAWSKVDQFPFFEAYKDITGVFIMDRPDSDHLAQWQGYITTR",
    "class": "1 (yes)"
  },
  {
    "molecule": "CHI13: Chalcone isomerase from Lactobacillus sp. 54-2, access no. WP_125715151.1 (protein, Lactobacillus sp. 54-2) SFEFRPMRSVIYVDVIKEKYRPKLLHWLYGHHIQDSISKFGPYVTKYAFYNAFPVPPEGERFGTRRMQMTEHYWLINEMTPEMKNNAITEYMPKDVLRWQGNIPDTDAAAAGNVDGDTGRSAGGANGCQPFVFAHVPINWEEDYKGDGRMVADGPNYRWQFVIKYPENLTEAAGEAWFHDEVVPYFKGRPEVHRFMSSRIMQDVVGCEFERLVEMWFDSEDEWYTAAVAGTTALKKPSWAQQNQFPFLTPQFNIVGMFLPDIPTSDNLAQYRGYITMR",
    "class": "1 (yes)"
  },
  {
    "molecule": "CHIera Mut1: Chalcone isomerase variant 1 from Eubacterium ramulus, genetically engineered (protein, listed as Eubacterium ramulus) MADFKFEPMRSLIYVDCVSEDYRPKLQRWIYKVHIPDSISKFEPYVTKYAFYPSFPIPPQGDRFGYARMQLTEHHWLVSELDPRLEINAIAETFPMDVLVWQGQIPAAAHTDAQIDSDGDAGRAAGKSNNAEGNPFIFAFLPMWWEKDLKGKGRTIEDGANYRFNMTIGFPEGVDKAEGEKWLFEKVVPILQAAPECTRVLASAVKKDINGCVMDWVLEIWFENQSGWYKVMVDDMKALEKPSWAQQDAFPFLKPYHNVCSAAVADYTPSNNLANYRGYITMR",
    "class": "1 (yes)"
  },
  {
    "molecule": "CHIera Mut2: Chalcone isomerase variant 2 from Eubacterium ramulus, genetically engineered (protein, listed as Eubacterium ramulus) MADFKFEPMRSLIYVDCVSEDYRPKLQRWIYKVHIPDSISQFEPYVTKYAFYPSFPIPPQGDRFGYARMQLTEHHWLVSPLDPRLEIKAIAETFPMDVLVWQGQIPAAAHTDAQIDSDGDAGRAAGKSNNAEGNPFIFAFLPMWWEKDLKGKGRTIEDGANYRFNMTIGFPEGVDKAEGEKWLFEKVVPILQAAPECTRVLASAVKKDINGCVMDWVLEIWFENQSGWYKVMVDDMKALEKPSWAQQDAFPFLKPYHNVCSAAVADYTPSNNLANYRGYITMR",
    "class": "0 (no)"
  }
]
